IC50: recorded values
Tested on: human colon carcinoma HT-29
TEST PROTOCOL: Inhibition of nucleic acid synthesis in HT-29 cells in vitro
Type: cell-based
PROTOCOL CONDITIONS: [3H]thymidine incorporation, 2-h exposure, read-out: IC50, DNA synth
*1 amine or outer side, *2 acyl side, *3 side chain or, on linkers, in order; H or OH if unused. Where a SMILES comes first, the peptide text is derived from it. Bridges are numbered along the chain shown (N, C = ends). Roman numbers before positions name the chains, in order. [ ]: non-standard residue; d: D form. Actinocin(9to1) = Cc1c2oc3c(C)ccc(C(=O)[*:1])c3nc-2c(C(=O)[*:2])c(N)c1=O; NMeV = CN[C@H](C(=O)O)C(C)C; Sar = CNCC(=O)O
Entry rule: numbers only, all in nM.

Worked set:
Cc1c2oc3c(C)ccc(C(=O)N[C@@H]4C(=O)N[C@H](C(C)C)C(=O)N5CCC[C@H]5C(=O)N(C)CC(=O)N(C)[C@@H](C(C)C)C(=O)O[C@@H]4C)c3nc-2c(C(=O)N[C@@H]2C(=O)N[C@H](C(C)C)C(=O)N3CCC[C@H]3C(=O)N(C)CC(=O)N(C)[C@@H](C(C)C)C(=O)O[C@@H]2C)c(N)c1=O [AMD (1), Actinomycin D] (I: T[dV]P[Sar][NMeV] / II: T[dV]P[Sar][NMeV]; ester I:1-I:C, II:1-II:C; linker I:N-II:N via Actinocin(9to1))
900
Cc1c2oc3c(C)c(O)c(N)c(C(=O)N[C@@H]4C(=O)N[C@H](C(C)C)C(=O)N5CCC[C@H]5C(=O)N(C)CC(=O)N(C)[C@@H](C(C)C)C(=O)O[C@@H]4C)c3nc-2c(C(=O)N[C@@H]2C(=O)N[C@H](C(C)C)C(=O)N3CCC[C@H]3C(=O)N(C)CC(=O)N(C)[C@@H](C(C)C)C(=O)O[C@@H]2C)c(N)c1=O
70
Cc1c2oc3c(C)c4oc(CC(=O)NCCCCN)nc4c(C(=O)N[C@@H]4C(=O)N[C@H](C(C)C)C(=O)N5CCC[C@H]5C(=O)N(C)CC(=O)N(C)[C@@H](C(C)C)C(=O)O[C@@H]4C)c3nc-2c(C(=O)N[C@@H]2C(=O)N[C@H](C(C)C)C(=O)N3CCC[C@H]3C(=O)N(C)CC(=O)N(C)[C@@H](C(C)C)C(=O)O[C@@H]2C)c(N)c1=O
365

As a next step, examine the molecule that follows.
Query string: Which IC50 is listed for "Cc1c2oc3c(C)c4oc(-c5ccccc5)nc4c(C(=O)N[C@@H]4C(=O)N[C@H](C(C)C)C(=O)N5CCC[C@H]5C(=O)N(C)CC(=O)N(C)[C@@H](C(C)C)C(=O)O[C@@H]4C)c3nc-2c(C(=O)N[C@@H]2C(=O)N[C@H](C(C)C)C(=O)N3CCC[C@H]3C(=O)N(C)CC(=O)N(C)[C@@H](C(C)C)C(=O)O[C@@H]2C)c(N)c1=O" ?
Result string: 580
